test system: Escherichia coli TOP10; assay: shrunken log2 fold change of peptide-encoding DNA abundance (4.5 h post-induction vs induction); higher = less antimicrobial activity (less host growth inhibition); details: time post-induction: 4.5 h; library: site-saturation at positions 5, 18, 19, 20;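 also: peptides expressed intracellularly from a pBAD plasmid library in pooled LB shake-flask culture, induced with 0.3% L-arabinose, DNA abundance read by NGS, three biological replicates, DESeq2 with apeglm shrinkage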
Label class 1 when shrunken log2 fold change is at or above 0.06; otherwise label class 0.

### Prompt Record `RRIRCRPPRLPRPRPRPHMKPRP` ; criterion: shrunken log2 fold change no lower than 0.06. Met?
### Response class 0

### Prompt Record `RRIRLRPPRLPRPRPRPASDPRP` ; criterion: shrunken log2 fold change no lower than 0.06. Met?
### Response class 0

### Prompt Record `RRIRIRPPRLPRPRPRPKAIPRP` ; criterion: shrunken log2 fold change no lower than 0.06. Met?
### Response class 0

### Prompt Record `RRIRNRPPRLPRPRPRPDLCPRP` ; criterion: shrunken log2 fold change no lower than 0.06. Met?
### Response class 0

### Prompt Record `RRIRRRPPRLPRPRPRPDMHPRP` ; criterion: shrunken log2 fold change no lower than 0.06. Met?
### Response class 0

### Prompt Record `RRIRPRPPRLPRPRPRPCINPRP` ; criterion: shrunken log2 fold change no lower than 0.06. Met?
### Response class 0

### Prompt Record `RRIRIRPPRLPRPRPRPMKAPRP` ; criterion: shrunken log2 fold change no lower than 0.06. Met?
### Response class 0

### Prompt Record `RRIRGRPPRLPRPRPRPEIKPRP` ; criterion: shrunken log2 fold change no lower than 0.06. Met?
### Response class 1

### Prompt Record `RRIRERPPRLPRPRPRPWLIPRP` ; criterion: shrunken log2 fold change no lower than 0.06. Met?
### Response class 0

### Prompt Record `RRIRLRPPRLPRPRPRPLHDPRP` ; criterion: shrunken log2 fold change no lower than 0.06. Met?
### Response class 0

### Prompt Record `RRIRSRPPRLPRPRPRPKDVPRP` ; criterion: shrunken log2 fold change no lower than 0.06. Met?
### Response class 0

### Prompt Record `RRIRYRPPRLPRPRPRPASHPRP` ; criterion: shrunken log2 fold change no lower than 0.06. Met?
### Response class 0

### Prompt Record `RRIRERPPRLPRPRPRPEARPRP` ; criterion: shrunken log2 fold change no lower than 0.06. Met?
### Response class 1

### Prompt Record `RRIRVRPPRLPRPRPRPICNPRP` ; criterion: shrunken log2 fold change no lower than 0.06. Met?
### Response class 0

### Prompt Record `RRIRQRPPRLPRPRPRPLTEPRP` ; criterion: shrunken log2 fold change no lower than 0.06. Met?
### Response class 0

### Prompt Record `RRIRARPPRLPRPRPRPIFRPRP` ; criterion: shrunken log2 fold change no lower than 0.06. Met?
### Response class 1

### Prompt Record `RRIRTRPPRLPRPRPRPMYHPRP` ; criterion: shrunken log2 fold change no lower than 0.06. Met?
### Response class 0

### Prompt Record `RRIRTRPPRLPRPRPRPVYKPRP` ; criterion: shrunken log2 fold change no lower than 0.06. Met?
### Response class 0

### Prompt Record `RRIRVRPPRLPRPRPRPHLLPRP` ; criterion: shrunken log2 fold change no lower than 0.06. Met?
### Response class 0

### Prompt Record `RRIRFRPPRLPRPRPRPRQMPRP` ; criterion: shrunken log2 fold change no lower than 0.06. Met?
### Response class 0

### Prompt Record `RRIRGRPPRLPRPRPRPYAWPRP` ; criterion: shrunken log2 fold change no lower than 0.06. Met?
### Response class 0

### Prompt Record `RRIRNRPPRLPRPRPRPAQWPRP` ; criterion: shrunken log2 fold change no lower than 0.06. Met?
### Response class 1

### Prompt Record `RRIRTRPPRLPRPRPRPAWTPRP` ; criterion: shrunken log2 fold change no lower than 0.06. Met?
### Response class 1

### Prompt Record `RRIRVRPPRLPRPRPRPHTNPRP` ; criterion: shrunken log2 fold change no lower than 0.06. Met?
### Response class 0

### Prompt Record `RRIRIRPPRLPRPRPRPCIRPRP` ; criterion: shrunken log2 fold change no lower than 0.06. Met?
### Response class 0

### Prompt Record `RRIRWRPPRLPRPRPRPVHRPRP` ; criterion: shrunken log2 fold change no lower than 0.06. Met?
### Response class 1

### Prompt Record `RRIRHRPPRLPRPRPRPCSKPRP` ; criterion: shrunken log2 fold change no lower than 0.06. Met?
### Response class 0

### Prompt Record `RRIRQRPPRLPRPRPRPMGWPRP` ; criterion: shrunken log2 fold change no lower than 0.06. Met?
### Response class 1

### Prompt Record `RRIRNRPPRLPRPRPRPPASPRP` ; criterion: shrunken log2 fold change no lower than 0.06. Met?
### Response class 1

### Prompt Record `RRIRRRPPRLPRPRPRPEMPPRP` ; criterion: shrunken log2 fold change no lower than 0.06. Met?
### Response class 1

### Prompt Record `RRIRARPPRLPRPRPRPSQSPRP` ; criterion: shrunken log2 fold change no lower than 0.06. Met?
### Response class 0

### Prompt Record `RRIRDRPPRLPRPRPRPQINPRP` ; criterion: shrunken log2 fold change no lower than 0.06. Met?
### Response class 0

### Prompt Record `RRIRERPPRLPRPRPRPHTTPRP` ; criterion: shrunken log2 fold change no lower than 0.06. Met?
### Response class 0

### Prompt Record `RRIRRRPPRLPRPRPRPPLIPRP` ; criterion: shrunken log2 fold change no lower than 0.06. Met?
### Response class 1

### Prompt Record `RRIRTRPPRLPRPRPRPAATPRP` ; criterion: shrunken log2 fold change no lower than 0.06. Met?
### Response class 1

### Prompt Record `RRIRNRPPRLPRPRPRPLRLPRP` ; criterion: shrunken log2 fold change no lower than 0.06. Met?
### Response class 1

### Prompt Record `RRIRHRPPRLPRPRPRPLVMPRP` ; criterion: shrunken log2 fold change no lower than 0.06. Met?
### Response class 0

### Prompt Record `RRIRKRPPRLPRPRPRPITQPRP` ; criterion: shrunken log2 fold change no lower than 0.06. Met?
### Response class 0

### Prompt Record `RRIRWRPPRLPRPRPRPTPVPRP` ; criterion: shrunken log2 fold change no lower than 0.06. Met?
### Response class 1

### Prompt Record `RRIRERPPRLPRPRPRPMVHPRP` ; criterion: shrunken log2 fold change no lower than 0.06. Met?
### Response class 0

### Prompt Record `RRIRNRPPRLPRPRPRPPYKPRP` ; criterion: shrunken log2 fold change no lower than 0.06. Met?
### Response class 0

### Prompt Record `RRIRLRPPRLPRPRPRPRQLPRP` ; criterion: shrunken log2 fold change no lower than 0.06. Met?
### Response class 1

### Prompt Record `RRIRDRPPRLPRPRPRPTMKPRP` ; criterion: shrunken log2 fold change no lower than 0.06. Met?
### Response class 1

### Prompt Record `RRIRGRPPRLPRPRPRPWGYPRP` ; criterion: shrunken log2 fold change no lower than 0.06. Met?
### Response class 1

### Prompt Record `RRIRTRPPRLPRPRPRPLPKPRP` ; criterion: shrunken log2 fold change no lower than 0.06. Met?
### Response class 0

### Prompt Record `RRIRERPPRLPRPRPRPIMDPRP` ; criterion: shrunken log2 fold change no lower than 0.06. Met?
### Response class 0

### Prompt Record `RRIRTRPPRLPRPRPRPGGAPRP` ; criterion: shrunken log2 fold change no lower than 0.06. Met?
### Response class 1

### Prompt Record `RRIRNRPPRLPRPRPRPSVPPRP` ; criterion: shrunken log2 fold change no lower than 0.06. Met?
### Response class 0

### Prompt Record `RRIRDRPPRLPRPRPRPTRPPRP` ; criterion: shrunken log2 fold change no lower than 0.06. Met?
### Response class 1

### Prompt Record `RRIRVRPPRLPRPRPRPTRGPRP` ; criterion: shrunken log2 fold change no lower than 0.06. Met?
### Response class 1

### Prompt Record `RRIRRRPPRLPRPRPRPPAWPRP` ; criterion: shrunken log2 fold change no lower than 0.06. Met?
### Response class 1

### Prompt Record `RRIRIRPPRLPRPRPRPGEVPRP` ; criterion: shrunken log2 fold change no lower than 0.06. Met?
### Response class 1

### Prompt Record `RRIRFRPPRLPRPRPRPAAEPRP` ; criterion: shrunken log2 fold change no lower than 0.06. Met?
### Response class 1

### Prompt Record `RRIRLRPPRLPRPRPRPDYKPRP` ; criterion: shrunken log2 fold change no lower than 0.06. Met?
### Response class 0

### Prompt Record `RRIRGRPPRLPRPRPRPMRSPRP` ; criterion: shrunken log2 fold change no lower than 0.06. Met?
### Response class 1

### Prompt Record `RRIRLRPPRLPRPRPRPTGWPRP` ; criterion: shrunken log2 fold change no lower than 0.06. Met?
### Response class 1

### Prompt Record `RRIRIRPPRLPRPRPRPSHTPRP` ; criterion: shrunken log2 fold change no lower than 0.06. Met?
### Response class 0

### Prompt Record `RRIRIRPPRLPRPRPRPAMWPRP` ; criterion: shrunken log2 fold change no lower than 0.06. Met?
### Response class 1

### Prompt Record `RRIRARPPRLPRPRPRPWLWPRP` ; criterion: shrunken log2 fold change no lower than 0.06. Met?
### Response class 1

### Prompt Record `RRIRFRPPRLPRPRPRPYLKPRP` ; criterion: shrunken log2 fold change no lower than 0.06. Met?
### Response class 0

### Prompt Record `RRIRYRPPRLPRPRPRPDPDPRP` ; criterion: shrunken log2 fold change no lower than 0.06. Met?
### Response class 0

### Prompt Record `RRIRFRPPRLPRPRPRPKWYPRP` ; criterion: shrunken log2 fold change no lower than 0.06. Met?
### Response class 0
